For each record, write down the corresponding promoter activity interaction Z-score.
Test system: E. coli BW25113 acrABp lux reporter
Assay: promoter activity interaction Z-score (Lux/OD deviation from empty-vector control); higher = stronger promoter induction by the compound
Details: 1 µg/ml; genetic background: ΔsoxS
Give bare numbers.

Look over these answered cases.
CCC[C@@H]1C[C@@H](C(=O)N[C@@H]([C@H]2O[C@H](SC)[C@H](O)[C@@H](O)[C@H]2O)[C@H](C)Cl)N(C)C1 | 0.424
O=C(N[C@H](CO)[C@H](O)c1ccc([N+](=O)[O-])cc1)C(Cl)Cl | 0.0905

Quick batch: promoter activity interaction Z-score for everything below.
1. CO[C@H]1/C=C/O[C@@]2(C)Oc3c(C)c(O)c4c(O)c(c(/C=N/N5CCN(C)CC5)c(O)c4c3C2=O)NC(=O)/C(C)=C\C=C\[C@H](C)[C@H](O)[C@@H](C)[C@@H](O)[C@@H](C)[C@H](OC(C)=O)[C@@H]1C
2. C/C(=C\C(=O)OCCCCCCCCC(=O)O)C[C@@H]1OC[C@H](C[C@@H]2O[C@H]2[C@@H](C)[C@H](C)O)[C@@H](O)[C@H]1O

1. -0.932
2. 0.483

====

For each record, write down the corresponding promoter activity interaction Z-score.
Test system: E. coli BW25113 acrABp lux reporter
Test: promoter activity interaction Z-score (Lux/OD deviation from empty-vector control); higher = stronger promoter induction by the compound
Settings: 1 µg/ml; genetic background: ΔmarA
Give bare numbers.

Look over these answered cases.
O=C(N[C@H](CO)[C@H](O)c1ccc([N+](=O)[O-])cc1)C(Cl)Cl | -1.09
CCC[C@@H]1C[C@@H](C(=O)N[C@@H]([C@H]2O[C@H](SC)[C@H](O)[C@@H](O)[C@H]2O)[C@H](C)Cl)N(C)C1 | -0.845
CC1(C)S[C@@H]2[C@H](NC(=O)[C@H](N)c3ccc(O)cc3)C(=O)N2[C@H]1C(=O)O | -0.334

# ---- query molecule ----
Consider the molecule shown here: NC1CONC1=O (centres undefined) What is its recorded promoter activity interaction Z-score?
0.657

====

Test system: E. coli BW25113 soxSp lux reporter
Experiment: promoter activity interaction Z-score (Lux/OD deviation from empty-vector control); higher = stronger promoter induction by the compound
Conditions: 1 µg/ml; genetic background: ΔsoxS
Param threshold (0.09) applies to promoter activity interaction Z-score; output True when value >= threshold, False when value < threshold.

C/C(=C\C(=O)OCCCCCCCCC(=O)O)C[C@@H]1OC[C@H](C[C@@H]2O[C@H]2[C@@H](C)[C@H](C)O)[C@@H](O)[C@H]1O | True
O=C(N[C@H](CO)[C@H](O)c1ccc([N+](=O)[O-])cc1)C(Cl)Cl | True
NC1CONC1=O (stereo not given) | True
CO[C@H]1/C=C/O[C@@]2(C)Oc3c(C)c(O)c4c(O)c(c(/C=N/N5CCN(C)CC5)c(O)c4c3C2=O)NC(=O)/C(C)=C\C=C\[C@H](C)[C@H](O)[C@@H](C)[C@@H](O)[C@@H](C)[C@H](OC(C)=O)[C@@H]1C | False

Now look at this entry.
For this compound, is measured promoter activity interaction Z-score 0.09 or higher? CCC[C@@H]1C[C@@H](C(=O)N[C@@H]([C@H]2O[C@H](SC)[C@H](O)[C@@H](O)[C@H]2O)[C@H](C)Cl)N(C)C1
True
